System: P. aeruginosa PAO1
Assay type: cell-based, Pseudomonas aeruginosa
Applied conditions: PAO1, 18 h
Bridge positions count the residues as written; N and C are the ends. Square brackets hold non-standard residues; d marks the D form. Peptide text beside a SMILES is read from it. * marks the point of attachment. Palmitoyl = CCCCCCCCCCCCCCCC(=O)*; dOrn = NCCC[C@@H](N)C(=O)O; Orn = NCCC[C@H](N)C(=O)O
Property name: Antimicrobial activity (MIC) P. aeruginosa PAO1 (mg/L)
Write the value in mg/L as a bare number.

Sample CCCCCCCCCCCCCCCC(=O)N[C@H](CO)C(=O)N[C@H](Cc1ccc(O)cc1)C(=O)N[C@H](Cc1c[nH]c2ccccc12)C(=O)N[C@H](CCCN)C(=O)N[C@@H](CCCN)C(=O)NCC(=O)N[C@H](CCCN)C(=O)N[C@@H](Cc1c[nH]c2ccccc12)C(=O)N[C@@H]1C(=O)N[C@@H]([C@@H](C)CC)C(=O)N[C@@H](CC(N)=O)C(=O)NCC(=O)NCC(=O)O[C@@H]1C [Compound 26] (Palmitoyl-[dS][dY][dW][dOrn][Orn]G[dOrn]WTINGG; ester 9-C) — what was its Antimicrobial activity (MIC) P. aeruginosa PAO1?
32
